- assay_overview: qHTS assay to identify small molecule antagonists of the estrogen receptor alpha (ER-alpha) signaling pathway - cell viability counter screen (AID 743074);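 also: HEK293 cells carrying ER-alpha-UAS-bla reporter stimulated with 17beta-estradiol; nearly all actives have a fitted effect of over 45% in size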
- experimental_setup: ERalpha-bla HEK293 viability, CellTiter-Glo luminescence, 18 h; series mostly up to 69.4 µM
Records with an inconclusive call do not appear. Calls of active or inactive are those of the source. Calls follow the shape of the full dose curve.
Outcome codes: class 1 for active, class 0 for inactive

{"columns": ["compound", "group_label"],
 "data": [
  ["Oc1ccc(-c2ccccc2)c(Cl)c1", "class 0"],
  ["CC(C)(C)c1cc(/C=C2\\SC(=N)NC2=O)cc(C(C)(C)C)c1O", "class 1"],
  ["C=CC(=O)OCC(O)COc1ccccc1 (stereo not given)", "class 0"],
  ["O=Nc1ccc(NO)cc1", "class 0"],
  ["COC(=O)[C@]1(C)CCC[C@@]2(C)[C@H]1CC=C1C=C(C(C)C)CC[C@@H]12", "class 0"],
  ["CCCCCCCCCCCCCC[n+]1ccccc1", "class 1"],
  ["COC(=O)CC#N", "class 0"],
  ["C[Si](C)(C)Cl", "class 0"],
  ["Nc1ccc2cc3ccc(N)cc3nc2c1", "class 0"],
  ["Cc1occc1SSc1ccoc1C", "class 0"],
  ["CCN(CC)CCOC(=O)C1(C2CCCCC2)CCCCC1", "class 0"],
  ["Cc1cccc(Br)c1", "class 0"],
  ["Clc1ccc(C(c2ccccc2Cl)C(Cl)Cl)cc1 (stereo not given)", "class 0"],
  ["C(=C/c1ccccc1)/c1ccccc1", "class 0"],
  ["CCCCOC(=O)C(C)CC (stereo not given)", "class 0"],
  ["CC(=O)Oc1ccc(C2(c3ccc(OC(C)=O)cc3)Oc3ccccc3NC2=O)cc1", "class 0"],
  ["CO[C@H]1C=CO[C@@]2(C)Oc3c(C)c(O)c4c(O)c(cc(O)c4c3C2=O)NC(=O)/C(C)=C\\C=C/[C@H](C)[C@H](O)[C@@H](C)[C@@H](O)[C@@H](C)[C@H](OC(C)=O)[C@@H]1C", "class 0"],
  ["O=C1OC(=O)c2cccc3cccc1c23", "class 0"],
  ["C1CC(COCC2CO2)CCC1COCC1CO1 (stereo not given)", "class 0"],
  ["Cc1c(C(=O)O)cccc1[N+](=O)[O-]", "class 0"]
]}

###

We begin with a simple list: items and their reported activity change, negative = cytotoxicity.
- assay_overview: Human pregnane X receptor (PXR) small molecule agonists, qHTS cell viability counter screen (AID 1346977); also: % is scaled to controls: 0 for no effect and ±100 for the full control effect; nearly all actives have a fitted effect of over 50% in size
- experimental_setup: PXR-Luc HepG2 viability, CellTiter-Fluor, 24 h; series mostly up to 92.4 µM
Results filed as inconclusive are left out. The source made the active and inactive calls. The call rests on the fitted dose curve; in most records, active means well fitted cell-killing curve with a large enough effect in the repeat runs; inconclusive means weak or mixed curves, or effect the other way; inactive means flat fitted curve, though single readings scatter.
assay_readout: activity change, negative = cytotoxicity

{"columns": ["compound", "value_reported"],
 "data": [
  ["O=S(=O)(O)c1cc(S(=O)(=O)O)c2ccc3c(S(=O)(=O)O)cc(S(=O)(=O)O)c4ccc1c2c43", "3.17% [at 19 µM] (inactive)"],
  ["CCC(=O)CC(C)CC (configuration not stated)", "0.0659% [at 0.349 µM] (inactive)"],
  ["CCCCCCCCCCCCCCCCCO", "3.58% [at 19 µM] (inactive)"],
  ["S=C(SSSSSSC(=S)N1CCCCC1)N1CCCCC1", "0.702% [at 19 µM] (inactive)"],
  ["CCN1CCN(c2cc(-c3ccc(F)cc3)c3c(n2)CCCCCC3)CC1", "0.184% [at 19 µM] (inactive)"],
  ["O=C=NCc1cccc(CN=C=O)c1", "4.21% [at 19 µM] (inactive)"],
  ["C=C/C=C/C=C/CCCCC", "3.3% [at 19 µM] (inactive)"]
]}
